- method.summary: ATG_GATA_CIS: Attagene CIS-FACTORIAL HepG2 Assay for human GATA Binding Protein (AID 2282944)
- experimental.parameters: HepG2 GATA cis-element reporter, Attagene multiplex mRNA; actives raise or lower the signal
Activity calls are given as the source filed them. Rule for the calls: active = hit-call score of the fitted dose curve at least 0.9, where 1 is the maximum; inactive = score below 0.9.
Classes used: active, inactive

molecule | class.label
CC(C)(CO)[C@@H](O)C(=O)NCCC(=O)O | inactive
O=C(CC(=O)c1ccccc1)c1ccccc1 | active
OC[C@H]1O[C@@H](Oc2ccc(O)cc2)[C@H](O)[C@@H](O)[C@@H]1O | inactive
CCCCCCCCC=CCCCCCCCC1=NCCN1CCO | inactive
Cc1ccc2c(c1)C(=O)OC2=O | inactive
Cc1occc(=O)c1OC(=O)C(C)C | inactive
CC(=O)Nc1ccc(C(=O)CCl)cc1 | inactive
CC1(C)O[C@@H]2[C@@H](CO[C@@]3(COS(N)(=O)=O)OC(C)(C)O[C@@H]23)O1 | inactive
C=CC(C)C#N (stereo not given) | inactive
CC1C2CC(CC2C2CCCC(O)C2)C1(C)C (stereo not given) | inactive
C#CC(C)(O)CC(C)C (stereo not given) | inactive
CC1(C)C(=O)N(Cl)C(=O)N1Br | inactive
CCCCOC(=O)CCCCCCCC(=O)OCCCC | inactive
COC(=O)c1ccc(C)cc1C1=NC(C)(C(C)C)C(=O)N1 (stereo not given) (tested in a mixture with another compound) | inactive
CCc1cc(Cc2cc(CC)cc(C(C)(C)C)c2O)c(O)c(C(C)(C)C)c1 | inactive
COc1ccccc1N=Nc1c(S(=O)(=O)O)cc2cc(S(=O)(=O)O)cc(NC(C)=O)c2c1O | inactive
Nc1ccc2c(O)cc(S(=O)(=O)O)cc2c1 | inactive
Cc1cc(=O)oc2cc(N(C)C)ccc12 | inactive
ON=C1CCCCC1 | inactive
CC(C)(C)C1=CC(=O)C(C(C)(C)C)=CC1=O | active
OCC(O)c1ccccc1 (stereo not given) | inactive
CN(c1nccc(=O)[nH]1)C1CCN(c2nc3ccccc3n2Cc2ccc(F)cc2)CC1 | inactive
CCCCCCCCCC(C)C=O (stereo not given) | inactive
CCO/C=C1\N=C(c2ccccc2)OC1=O | inactive
CCc1cc(C(C)(C)C)c(O)c(C(C)(C)C)c1 | inactive
Cc1cc(CCC(=O)OCCOCCOCCOC(=O)CCc2cc(C)c(O)c(C(C)(C)C)c2)cc(C(C)(C)C)c1O | inactive
[O-]n1ccccc1=S.[O-]n1ccccc1=S.[Zn+2] | inactive
CCCCCCCCc1ccc(S(=O)(=O)O)cc1 | active
C#CC(C)N(C)C(=O)Nc1ccc(Cl)cc1 (stereo not given) | inactive
CC(C)OCCO | inactive
Cc1c(Cl)cccc1[N+](=O)[O-] | inactive
C=C(C)C(=O)OCC(CC)(COC(=O)C(=C)C)COC(=O)C(=C)C | inactive
CC(=O)CC(=O)Nc1ccc(C)cc1C | inactive
[Cl][Au]([Cl])[Cl] | inactive
O=C1NC2NC(=O)NC2N1 (stereo not given) | inactive
